- Test Summary: protein stability index of a GFP-peptide fusion (yeast GPS) (PSI 1-4); higher = more stable; sorted into four equal gates, so the index is relative within each strain
- Experimental Parameters: pdr5∆
Each entry below carries its reported protein stability index.
I'd appreciate a reply containing only the number, no unit.

stdin: What value of protein stability index has been recorded for this entry: QSAIRPAGQATQKRTHV [RPL4A]
stdout: 2.8

stdin: What value of protein stability index has been recorded for this entry: SSNIAGTNPLSSDGAYT [SSN2]
stdout: 2.73

stdin: What value of protein stability index has been recorded for this entry: KVAPAPFGAKSTKSNKT [RPL8A]
stdout: 2.84

stdin: What value of protein stability index has been recorded for this entry: QRGKWNLKYLDNSNVMT [RGR1]
stdout: 2.49

stdin: What value of protein stability index has been recorded for this entry: VCLMQISTRERDYLVDT [RRP6]
stdout: 3.4

stdin: What value of protein stability index has been recorded for this entry: SPQLTAIIGLKSGTSHD [SNF12]
stdout: 1.82

stdin: What value of protein stability index has been recorded for this entry: FFAYFIGWCKEDPKRRA [YJL039C/NUP192]
stdout: 2.03

* * *

- Test Summary: protein stability index of a GFP-peptide fusion (yeast GPS) (PSI 1-4); higher = more stable; sorted into four equal gates, so the index is relative within each strain
- Experimental Parameters: ubr1∆
Experimental Endpoint: protein stability index
I'd appreciate a reply containing only the number, no unit.

Use the examples below as a reference point.
Record Sequence: HPNRVLEHLHSTAFQNT [COR1]
protein stability index: 2.92
--
Record Sequence: RKWMEEKADYERELISN [YIL149C/MLP2]
protein stability index: 3.31
--
Record Sequence: TVTDDARIFEFPKTTVA [RPL18A]
protein stability index: 2.42
--
Record Sequence: ETNAKPFSFSSATSTTE [YLR335W/NUP2]
protein stability index: 2.26
--
Record Sequence: MARYGATSTNPAKSASA [RPL17A]
protein stability index: 2.9

stdin: What value of protein stability index has been recorded for this entry: IQSAESIKSQKEEISDQ [SWI3]
stdout: 2.85

stdin: What value of protein stability index has been recorded for this entry: GSVLLTLLNFVSNNVLR [ECM29]
stdout: 2.03

stdin: What value of protein stability index has been recorded for this entry: NKKLIKKLSKKYNAFIA [RPL1A]
stdout: 1.88

stdin: What value of protein stability index has been recorded for this entry: DESLKDEATVPNTRDAE [SWI3]
stdout: 3.14

stdin: What value of protein stability index has been recorded for this entry: EKLITSKLLVPQKNVKI [PRE10]
stdout: 2.21

* * *

- Test Summary: protein stability index of a GFP-peptide fusion (yeast GPS) (PSI 1-4); higher = more stable; sorted into four equal gates, so the index is relative within each strain
- Experimental Parameters: pdr5∆
Label no if protein stability index falls below 3; label yes in every other case.

Record Sequence: MGKKTFREWQYFKLSIT [POP8]
Label: no

Record Sequence: GVNELAPIPKGRVKYTK [POP1]
Label: no

Record Sequence: GDAAPAEEAAAEEEEES [RPP0]
Label: yes

Record Sequence: LADKLENYEGKQDKTLQ [YIL149C/MLP2]
Label: yes

Record Sequence: LATRRVLQEYRLTKQAF [RPO21]
Label: yes

Record Sequence: DAIIPFAAIPEQGIELE [FAS2]
Label: no

stdin: I'd appreciate it if you could say whether QQKLNTRMQRGHRADVG [REC8] has protein stability index at least equal to 3.
stdout: no

stdin: I'd appreciate it if you could say whether YSKNNPNLLFSMCGFEV [PRP8] has protein stability index at least equal to 3.
stdout: no

* * *

Each entry below carries its reported protein stability index.
- Test Summary: protein stability index of a GFP-peptide fusion (yeast GPS) (PSI 1-4); higher = more stable; sorted into four equal gates, so the index is relative within each strain
- Experimental Parameters: san1∆
I'd appreciate a reply containing only the number, no unit.

Use the examples below as a reference point.
Record Sequence: GSSASSRKAHGLNAKQL [POP1]
protein stability index: 3.13
--
Record Sequence: TEDRYNEYVAKVSAREK [FAS2]
protein stability index: 3.04
--
Record Sequence: GIKLALDPNLITLALSS [SRB4]
protein stability index: 2.58
--
Record Sequence: QIELSCNERVPLSVATE [SRP72]
protein stability index: 2.1
--
Record Sequence: SGNDSMAGKVLILTSHN [BRR2]
protein stability index: 1.63
--
Record Sequence: GSGVDSSKLQLTKKYSF [RRP42]
protein stability index: 1.55

Please turn your attention to the following entry.
stdin: What value of protein stability index has been recorded for this entry: VIFLSSLLTLVGSVTYQ [YJL039C/NUP192]
stdout: 1.14

* * *

- Test Summary: protein stability index of a GFP-peptide fusion (yeast GPS) (PSI 1-4); higher = more stable; sorted into four equal gates, so the index is relative within each strain
- Experimental Parameters: ubr1∆
Experimental Endpoint: protein stability index
I'd appreciate a reply containing only the number, no unit.

Use the examples below as a reference point.
Record Sequence: GCKNGSFTLLNQLSQTN [NUT1]
protein stability index: 3.22
//
Record Sequence: LRSTEYSKSFEQFKMVS [POP1]
protein stability index: 2.52
//
Record Sequence: NNIDQSLILKESGSTPI [YAR002W/NUP60]
protein stability index: 1.61

Please turn your attention to the following entry.
stdin: What value of protein stability index has been recorded for this entry: HDVGELFWKVKEEEGSF [PRE2]
stdout: 2.86

* * *

- Test Summary: protein stability index of a GFP-peptide fusion (yeast GPS) (PSI 1-4); higher = more stable; sorted into four equal gates, so the index is relative within each strain
- Experimental Parameters: pdr5∆
Experimental Endpoint: protein stability index

Record Sequence: LTNEDPPGLMYLKAFDK [SSN2]
Experimental Endpoint: protein stability index
Test Result: 2.61

stdin: What value of protein stability index has been recorded for this entry: SSKAATPDTKNFFHAKK [SNF12]
stdout: 2.96

stdin: What value of protein stability index has been recorded for this entry: QETEGTNRHTLALETVL [SIR3]
stdout: 2.57

stdin: What value of protein stability index has been recorded for this entry: EQTEGEPKKKRGFLGLF [SRP68]
stdout: 3.26

* * *

- Test Summary: protein stability index of a GFP-peptide fusion (yeast GPS) (PSI 1-4); higher = more stable; sorted into four equal gates, so the index is relative within each strain
- Experimental Parameters: doa10∆
Experimental Endpoint: protein stability index

Use the examples below as a reference point.
Record Sequence: GYTQHGGLRPFGVSFIY [PRE9]
protein stability index: 2.67

Record Sequence: GNYVIIIGHNPDENKTR [RPL2A]
protein stability index: 2.97

Record Sequence: NFESISARSSVHESLVT [SRB8]
protein stability index: 2.49

Record Sequence: GGKAGSAAKASQSRSAK [HTA1]
protein stability index: 3.17

Record Sequence: VRNVKGPVRENDILVLM [RPS28A]
protein stability index: 3.24

Record Sequence: GAHGYSGFYTFSLLDHH [PRE1]
protein stability index: 2.94

stdin: What value of protein stability index has been recorded for this entry: KFDIIIVDTSGRHHQEE [SRP54]
stdout: 3.01

stdin: What value of protein stability index has been recorded for this entry: TSLLYLSTLEPSTSITL [RPN9]
stdout: 2.36

* * *

- Test Summary: protein stability index of a GFP-peptide fusion (yeast GPS) (PSI 1-4); higher = more stable; sorted into four equal gates, so the index is relative within each strain
- Experimental Parameters: pdr5∆
Experimental Endpoint: protein stability index
I'd appreciate a reply containing only the number, no unit.

Use the examples below as a reference point.
Record Sequence: LKIFEGIPPPYDKKKRV [RPL16B]
Test Result: 2.51
--
Record Sequence: ITVVLGVNGYIWLRKTS [RRP4]
Test Result: 1.62
--
Record Sequence: PVSVSRIARALKQEGAA [RPL18A]
Test Result: 2.83
--
Record Sequence: ASHNVRRIPKRMRNRAL [POP1]
Test Result: 2.34
--
Record Sequence: GSPSLTSPQYIPSPLSS [NUT1]
Test Result: 2.52

Please turn your attention to the following entry.
stdin: What value of protein stability index has been recorded for this entry: SKICLSHFSLDQFITSL [ITC1]
stdout: 2.86

* * *

- Test Summary: protein stability index of a GFP-peptide fusion (yeast GPS) (PSI 1-4); higher = more stable; sorted into four equal gates, so the index is relative within each strain
- Experimental Parameters: doa10∆
Experimental Endpoint: protein stability index
I'd appreciate a reply containing only the number, no unit.

Use the examples below as a reference point.
Record Sequence: DNATLTELVDKANIFQV [SSN2]
protein stability index: 3.09
--
Record Sequence: ETASFIPTKESLTRDFE [YIL149C/MLP2]
protein stability index: 2.83
--
Record Sequence: KTVPFQVNQLQRILEVL [SSN3]
protein stability index: 2.27
--
Record Sequence: LKIFEGIPPPYDKKKRV [RPL16B]
protein stability index: 1.43
--
Record Sequence: DVVYALKRQGRTLYGFG [HHF1]
protein stability index: 2.77
--
Record Sequence: GYILEGEELAFYLRRLT [RPS8A]
protein stability index: 1.26
--
Record Sequence: PRSDDLEATWNFIEPGI [CDC53]
protein stability index: 3.04
--
Record Sequence: YSKNNPNLLFSMCGFEV [PRP8]
protein stability index: 2.96
--
Record Sequence: ELNVKHVKQCQETCDKL [SMC2]
protein stability index: 3
--
Record Sequence: DVYNRELDEHTTQIDLF [BRR2]
protein stability index: 3.07

stdin: What value of protein stability index has been recorded for this entry: DEPMTTFYKCVNCGHRW [RPC11]
stdout: 2.84

stdin: What value of protein stability index has been recorded for this entry: NSMDMVDGMAKVPIGLI [RGR1]
stdout: 3.4

stdin: What value of protein stability index has been recorded for this entry: PANAEPQAVTITSIMDD [ITC1]
stdout: 2.39

stdin: What value of protein stability index has been recorded for this entry: IDKITDGLGNVVDFTSL [YMR129W/POM152]
stdout: 3.41

stdin: What value of protein stability index has been recorded for this entry: LNELYQTQQDLPKVRYN [NSL1]
stdout: 3.1

stdin: What value of protein stability index has been recorded for this entry: IGDVDGLIVNPVKVSGT [POP5]
stdout: 2.73

stdin: What value of protein stability index has been recorded for this entry: TFHDYDMVKLDINPPLV [RRP42]
stdout: 2.94

stdin: What value of protein stability index has been recorded for this entry: SIMAVTFKDGVILGADS [PRE3]
stdout: 1.66

stdin: What value of protein stability index has been recorded for this entry: KKVSRRNARAARAAKIA [RPL13B]
stdout: 3.05
